Biological target: human ether-à-go-go-related gene (hERG) potassium channel (human, UniProt Q12809)
Sequence (Q12809 whole entry, looked up): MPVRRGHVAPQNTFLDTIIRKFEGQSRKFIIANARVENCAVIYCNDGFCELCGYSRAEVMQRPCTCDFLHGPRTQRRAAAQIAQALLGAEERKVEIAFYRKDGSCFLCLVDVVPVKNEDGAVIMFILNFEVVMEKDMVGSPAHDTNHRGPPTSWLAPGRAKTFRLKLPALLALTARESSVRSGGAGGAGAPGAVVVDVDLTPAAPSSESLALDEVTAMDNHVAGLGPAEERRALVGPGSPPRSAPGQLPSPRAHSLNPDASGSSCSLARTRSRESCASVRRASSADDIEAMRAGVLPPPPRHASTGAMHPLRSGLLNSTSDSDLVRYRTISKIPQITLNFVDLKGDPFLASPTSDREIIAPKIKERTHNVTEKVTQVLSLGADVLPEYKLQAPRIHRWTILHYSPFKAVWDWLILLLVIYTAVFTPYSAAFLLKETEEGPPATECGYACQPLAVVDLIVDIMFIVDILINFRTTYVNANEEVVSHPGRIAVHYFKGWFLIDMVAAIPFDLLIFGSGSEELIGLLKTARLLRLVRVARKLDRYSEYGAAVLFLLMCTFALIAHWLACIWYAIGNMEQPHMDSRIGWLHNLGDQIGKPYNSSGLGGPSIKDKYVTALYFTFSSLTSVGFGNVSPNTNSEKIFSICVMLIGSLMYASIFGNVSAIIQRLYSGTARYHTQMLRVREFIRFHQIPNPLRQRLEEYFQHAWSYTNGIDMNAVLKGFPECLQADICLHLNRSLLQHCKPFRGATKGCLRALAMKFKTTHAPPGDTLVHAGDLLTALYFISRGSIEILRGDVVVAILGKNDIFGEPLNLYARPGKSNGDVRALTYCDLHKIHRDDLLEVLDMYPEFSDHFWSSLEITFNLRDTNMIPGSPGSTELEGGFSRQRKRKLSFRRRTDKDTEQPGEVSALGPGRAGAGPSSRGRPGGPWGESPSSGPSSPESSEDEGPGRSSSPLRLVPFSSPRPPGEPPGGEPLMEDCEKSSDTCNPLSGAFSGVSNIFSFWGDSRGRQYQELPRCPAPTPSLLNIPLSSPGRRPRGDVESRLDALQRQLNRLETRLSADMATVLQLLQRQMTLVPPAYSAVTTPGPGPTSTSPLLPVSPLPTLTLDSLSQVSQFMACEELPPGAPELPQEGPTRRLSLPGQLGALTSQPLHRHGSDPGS
Experiment: primary screen, population patch clamp on CHO cells stably expressing hERG; higher = less effect of the substance
Screen size: about 310,000 compounds; about 14,000 (4.5%) showed an effect of 50% or more. Effects have a minus sign here. The list comes from a sample in which strong results are over-represented; it also holds close analogues and randomly drawn compounds.
measured endpoint: hERG current change (%, negative = inhibition) at 10uM (%)
Provide the reading as a plain figure in %.

// fetch human ether-à-go-go-related gene (hERG) potassium channel (human, UniProt Q12809) hERG current change (%, negative = inhibition) at 10uM for CC(C)Cc1ccc(CN2CCCC(NC(=O)CCN3CCCO3)C2)cc1 (centres unmarked) -43.4

Cool, now COc1cc2[nH]c3ccccc3c2cc1C 2.45

Another: Cc1cc2[nH]c3c(c[n+](C)c4ccccc34)c2cc1C.[I-] -77.8

Repeat with COCCNc1nc(SCC(=O)N2CCN(c3ccccc3OC)CC2)nc2ccccc12 -88.6

Ok, now CCOC(=O)N1CCC(N(CCN(C)C)C(=S)Nc2ccccc2C)CC1 3.33

Lookup COCCNC(=O)CSc1nc2ccccc2c(=O)n1CCC(=O)N1CCN(c2ccccc2)CC1 -35

Can you check CCOc1ccc(CCNC(=O)c2ccc(S(=O)(=O)N3CCCC3)cc2)cc1OCC next? -8.47

// query: CCCCn1c(SCC(=O)Nc2nnc(C)s2)nc2c1c(=O)n(C)c(=O)n2C -12.4

Moving on to the next molecule: COCCNc1nc(SCC(=O)N2CCN(c3ccccc3)CC2)nc2ccccc12 -86.9

Then this molecule: CNC(=O)NC(=O)C(C)OC(=O)c1cc2c(s1)CCCCC2 (centres unmarked) -7.89

###

Biological target: human ether-à-go-go-related gene (hERG) potassium channel (human, UniProt Q12809);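 note: peak tail current of the secondary pulse compared with the same well before compound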
Assay: primary screen, population patch clamp on CHO cells stably expressing hERG; higher = less effect of the substance
Hit rate of the full screen: of about 310,000 compounds, about 14,000 (4.5%) showed an effect of 50% or more. Effects have a minus sign here. The sample as a whole holds a higher share of strong results than the screen did.
measured endpoint: hERG current change (%, negative = inhibition) at 10uM

// known answers, use as guide
CN(CC(=O)Nc1cccc(F)c1)C(=O)Cc1n[nH]c(=O)c2ccccc12 :: 5.31%
COc1cccc(NC(=O)CN(C)C(=O)Cc2c(C)nc3ccccc3c2C)c1 :: -62.8%
CN(C)CCNc1ncnc2c1sc1nc(N3CCCC3)c3c(c12)CC(C)(C)OC3 :: -20.4%

Which hERG current change (%, negative = inhibition) at 10uM is reported for this molecule? COc1ccc(NC(=O)CN(C)C(=O)Cc2c(C)nc3ccccc3c2C)cc1 -46.1%

Queued: CC(C)CNc1ncnc2c1sc1nc(N3CCOCC3)c3c(c12)CC(C)(C)OC3 -4.77%

// query: O=C(NCC(c1cccs1)N1CCOCC1)C1CCN(S(=O)(=O)c2c(Cl)cccc2Cl)CC1 (stereo not drawn) -27.3%

Another molecule to check: CCN(CC)CCNc1ncnc2c1sc1nc(N3CCOCC3)c3c(c12)CC(C)(C)SC3 -71.1%

Here is the next molecule: CCOc1ccc(NC(=O)CN(C)C(=O)Cc2c(C)nc3ccccc3c2C)cc1OCC -47%

Consider next the molecule Cc1nc2ccccc2c(C)c1CC(=O)N(C)CC(=O)Nc1cccc(F)c1 in the same way. -55.9%

###

Target: human ether-à-go-go-related gene (hERG) potassium channel (human);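 note: peak tail current of the secondary pulse compared with the same well before compound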
Assay: primary screen, population patch clamp on CHO cells stably expressing hERG; higher = less effect of the substance
In all, about 310,000 compounds went through this assay and about 14,000 (4.5%) showed an effect of 50% or more. The effect is printed as a negative number. What follows is part of a selection rich in strong results, with near analogues and random picks from the rest.
Would you mind labelling by hERG current change (%, negative = inhibition) at 10uM? At or over -60% is 1 (yes), under is 0 (no).

Dear colleague, could you confirm whether O=C(NCCCC1CCCC1)C1CCC(=O)N(Cc2cccc(F)c2)C1 (stereo not drawn) has hERG current change (%, negative = inhibition) at 10uM at or above -60%? 1 (yes)

Here is the next compound: CCn1cc(C(=O)NCCCN2CCC(C)CC2)c(=O)c2cc(S(=O)(=O)N(C)C3CCCCC3)ccc21 0 (no)

Another: Cc1ccc(Cl)cc1N1CCN(S(=O)(=O)c2cccc(S(=O)(=O)N3CCCC3)c2)CC1 1 (yes)

Another compound to check: CCN1CCN(C(=O)CCc2nnc(CCCCc3ccccc3)o2)[C@@H](C)C1=O 1 (yes)

Same thing, different compound: COc1ccc(CNC(=O)[C@@H]2CC=C[C@@H]3CCN(Cc4ccc(Cl)c(Cl)c4)C(=O)[C@@H]32)cc1 1 (yes)

###

Biological target: human ether-à-go-go-related gene (hERG) potassium channel (human);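 note: peak tail current of the secondary pulse compared with the same well before compound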
Assay: primary screen, population patch clamp on CHO cells stably expressing hERG; higher = less effect of the substance
The whole screen tested about 310,000 compounds, of which about 14,000 (4.5%) showed an effect of 50% or more. Effects have a minus sign here. Many of the other results were omitted from the sample, so strong results are more common in it than they were.
Collected hERG current change (%, negative = inhibition) at 10uM values appear next to each entry.
Supply the numeric figure in %, leaving out any unit text.

# annotated cases, reported hERG current change (%, negative = inhibition) at 10uM shown
COc1cc(-c2noc(C)c2-c2ccc3[nH]ccc3c2)cc(OC)c1OC :: 8.02
Cc1ccc(NC(=O)NCc2ccc3c(c2)OCO3)cc1 :: 5.69
Cc1cc(C(=O)NC2CC(C)(C)Cc3c2cnn3-c2ccc(F)cc2)nn1C (centres unmarked) :: -14.8
COCCN1CCN(Cc2cn(C)nc2-c2cccc(Cl)c2)CC1 :: -15.7
CCOc1ccc(-c2cnc3ccccc3n2)cc1 :: 14.3
CC(=O)Nc1ccc(NC(=O)c2oc3cc(C)c(C)cc3c2C)cc1 :: 7.5
CCN(CC)CCN=C(C)c1c(O)n(-c2ccccc2OC)c(=O)[nH]c1=O :: 4.71
Cn1cc(CN2CCN(Cc3ccccc3)CC2)c(-c2cccc(Cl)c2)n1 :: -53
Cn1cc(CN2CCC(C(O)c3cccs3)CC2)c(-c2ccccc2F)n1 (centres unmarked) :: -21.5
COc1cc(-c2c(-c3cc(OC)c(OC)c(OC)c3)noc2C)ccc1F :: 13.6

Missing value: hERG current change (%, negative = inhibition) at 10uM, human ether-à-go-go-related gene (hERG) potassium channel (human), entry CC(CNC(=O)c1ccc(Br)o1)NC(=O)c1ccc(Br)o1 (centres unmarked) . Fill in? -0.676

Check COc1ccc(-n2ncc3c2CC(C)(C)CC3NC(=O)c2cnc(C)cn2)cc1 (centres unmarked) too. -4.41

Let us now turn to Cn1cc(CN2CCN(c3ncccn3)CC2)c(-c2cccc(Cl)c2)n1 -20.5

Now try Cn1cc(CN2CCC(C(O)c3cccs3)CC2)c(-c2cccc(Cl)c2)n1 (centres unmarked) . -57

###

Let's look at some compounds and their measured hERG current change (%, negative = inhibition) at 10uM.
Target: human ether-à-go-go-related gene (hERG) potassium channel (human, UniProt Q12809);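 note: peak tail current of the secondary pulse compared with the same well before compound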
Assay: primary screen, population patch clamp on CHO cells stably expressing hERG; higher = less effect of the substance
Out of some 310,000 compounds screened, about 14,000 (4.5%) showed an effect of 50% or more. Effects have a minus sign here. Many of the other results were omitted from the sample, so strong results are more common in it than they were.
Report only the number, with the unit % understood.

Sample answers from the record:
COc1cccc(CNC(=O)CCC2CCCN(C(=O)c3ccccc3N(C)C)C2)c1 (stereo not shown) :: 0.174
COc1cc(/C=N/NC(=O)COc2ccccc2C)ccc1OC(=O)c1cccs1 :: -0.671
Cc1nn(C)cc1/C=N/NC(=O)c1sc2ccccc2c1Cl :: -6.47

// lookup hERG current change (%, negative = inhibition) at 10uM for CCc1ccc2[nH]c(=O)c(CN(CCCN3CCOCC3)C(=O)Nc3ccc(Cl)cc3)cc2c1 -65.6

And for CC(C)c1ccc(NC(=O)CCS(=O)(=O)c2cccc3nonc23)cc1 ? 1.81

Now this one: N/C(=N\OC(=O)C(c1ccccc1)c1ccccc1)c1ccccn1 8.35

Item: CCc1ccc2[nH]c(=O)c(CN(CCCN3CCOCC3)C(=O)Nc3cccc(Cl)c3)cc2c1 -54.1

What would you report for COc1ccc2[nH]c(=O)c(CN(CCCN3CCOCC3)C(=O)NCc3ccccc3)cc2c1 ? 8.39

Cool, now Cc1ccc(NC(=O)N(CCCN2CCOCC2)Cc2cc3cc4c(cc3[nH]c2=O)OCO4)cc1 -42

CCC(C)(C)NC(=O)C(c1ccc(F)cc1)N(Cc1cccc(OC)c1)C(=O)c1cnccn1 (stereo not shown) ? 9.72

Also need COc1cccc(CNC(=O)CCC2CCCN(C(=O)c3ccc(C)nc3)C2)c1 (stereo not shown) , thanks. 9.47

Okay, and Cc1ccc(S(=O)(=O)N2c3ccccc3OCC2C(C)(C)C)cc1 (stereo not shown) ? 4.08

// data source = paper PMC4336329
